testSystem: UniProt P35372
assayMethodText: Agonist activity at human mu opioid receptor expressed in HEK293 cells assessed as inhibition of forskolin-stimulated cAMP accumulation by fluorescence assay
Type: functional, cell-based
Please respond with reported EC50 for every item in the list.
One number for each entry, in nM.

[[record]]
compound = "CCC1(CC)CC(CCNCc2ccccc2)(c2ccc(F)cc2)CCO1 (stereo not given)"
readouttype = "EC50"
measurementunits = "nM"
obsvalue = 251

[[record]]
compound = "CC[C@]1(C)CC(CCNCc2ccccc2O)(c2ccc(C)cc2)CCO1 (stereo not given in full)"
readouttype = "EC50"
measurementunits = "nM"
obsvalue = 501

[[record]]
compound = "c1ccc([C@]2(CCNCc3ccc4ccccc4c3)CCOC3(CCCC3)C2)nc1"
readouttype = "EC50"
measurementunits = "nM"
obsvalue = 158

[[record]]
compound = "c1ccc([C@]2(CCNCc3ccncc3)CCOC3(CCCC3)C2)nc1"
readouttype = "EC50"
measurementunits = "nM"
obsvalue = 1260


--- query ---
Query :: Give UniProt P35372 EC50 for the following compound: CC[C@]1(C)CC(CCNCc2ccccc2O)(c2ccc(F)cc2)CCO1 (stereo not given in full)
Result :: 39.8

----------
testSystem: Mu-type opioid receptor (Homo sapiens)
Sequence (P35372 whole entry): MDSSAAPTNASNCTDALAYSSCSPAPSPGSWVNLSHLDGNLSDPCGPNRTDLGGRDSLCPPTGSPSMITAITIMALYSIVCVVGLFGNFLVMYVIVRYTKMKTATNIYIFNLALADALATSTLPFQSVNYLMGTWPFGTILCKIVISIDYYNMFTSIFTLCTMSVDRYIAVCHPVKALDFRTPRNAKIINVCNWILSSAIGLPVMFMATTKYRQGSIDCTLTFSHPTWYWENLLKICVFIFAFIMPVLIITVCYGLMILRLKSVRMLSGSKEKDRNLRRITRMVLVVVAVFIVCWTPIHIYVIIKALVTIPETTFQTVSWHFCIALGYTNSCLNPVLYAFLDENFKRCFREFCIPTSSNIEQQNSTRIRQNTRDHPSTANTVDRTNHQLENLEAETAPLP
assayMethodText: Agonist activity at human mu opioid receptor expressed in HEK293 cells assessed as inhibition of forskolin-stimulated cAMP accumulation by fluorescence assay
Assay type: functional, cell-based
Could you please mark 1 for values of EC50 below 30 nM and -1 for values at or above it?

Past entries and their recorded results:
[[record]]
compound = "Cc1cc(C)c(CNCC[C@@]2(c3ccccn3)CCOC3(CCCC3)C2)s1"
answerlabel = 1

[[record]]
compound = "c1ccc([C@]2(CCNCC3CCCC3)CCOC3(CCCC3)C2)nc1"
answerlabel = -1

[[record]]
compound = "Clc1cccc(CNCC[C@@]2(c3ccccn3)CCOC3(CCCC3)C2)c1"
answerlabel = 1


Query :: In plain terms, does Fc1ccc(C2(CCNCc3ccccc3)CCOC3(CCCCC3)C2)cc1 (configuration not stated) come in under 30 nM for EC50?
Result :: -1

Query :: Lab note: EC50 threshold 30 nM. Does this compound come in strictly under it? `c1ccc([C@]2(CCNCc3cccs3)CCOC3(CCCC3)C2)nc1`
Result :: 1

Query :: is_below(EC50, 30 nM) for `CC(C)(NCC[C@@]1(c2ccc(F)cc2)CCOC2(CCCC2)C1)c1ccccc1` ?
Result :: -1

Query :: Is EC50 strictly under 30 nM for the entry `Cc1cc(CNCC[C@@]2(c3ccccn3)CCOC3(CCCC3)C2)sc1C` ?
Result :: 1

Query :: Please determine if `Cc1ccc(CNCC[C@@]2(c3ccccn3)CCOC3(CCCC3)C2)s1` is below 30 nM in terms of EC50.
Result :: 1

Query :: Quick check: EC50 of `Fc1ccc([C@@]2(CCNCc3ccccc3)CCOC3(CCCC3)C2)cc1` under 30 nM?
Result :: -1

Query :: Determine if `C[C@@H](NCC[C@@]1(c2ccc(F)cc2)CCOC2(CCCC2)C1)c1ccccc1` shows EC50 strictly lower than 30 nM.
Result :: -1

Query :: For this compound, is EC50 lower than 30 nM? `c1ccc([C@]2(CCNCc3ccsc3)CCOC3(CCCC3)C2)nc1`
Result :: 1

Query :: Hello, I'm reviewing records and need to know if EC50 of `C[C@H](NCC[C@@]1(c2ccc(F)cc2)CCOC2(CCCC2)C1)c1ccccc1` is below 30 nM. Could you check?
Result :: -1

Query :: EC50 under 30 nM? Item: `c1ccc([C@]2(CCNCc3ccncn3)CCOC3(CCCC3)C2)nc1`
Result :: -1

Query :: is_below(EC50, 30 nM) for `Cc1cc(CNCC[C@@]2(c3ccccn3)CCOC3(CCCC3)C2)oc1C` ?
Result :: -1

Query :: Take the compound `c1ccc([C@]2(CCNCc3cnccn3)CCOC3(CCCC3)C2)nc1` and say whether its EC50 is less than 30 nM.
Result :: -1

Query :: Please determine if `Cc1ccc(CNCC[C@@]2(c3ccccn3)CCOC3(CCCC3)C2)o1` is below 30 nM in terms of EC50.
Result :: -1

Values were extracted from ChEMBL document CHEMBL2440083.
